Origin of the recorded values: ChEMBL document CHEMBL1177855

# Test system: Escherichia coli
# TEST_DESCRIPTION: Antibacterial activity against Escherichia coli ATCC 35218 after 24 hrs by MTT assay
# Format: functional
# CONDITION_SUMMARY: ATCC 35218, 24 h
REPORTED_PROPERTY: MIC (µg/mL)

# ITEM_SMILES, MIC, µg/mL
records = [
    ("NC[C@H]1O[C@H](O[C@H]2[C@H](O)[C@@H](O[C@H]3O[C@H](CO)[C@@H](O)[C@H](N)[C@H]3O)[C@H](N)C[C@@H]2N)[C@H](O)[C@@H](O)[C@@H]1O", 3.1),
    ("CCN(CC)C(=O)Nc1ccccc1F", 25),
    ("O=C(Nc1ccccc1)N1CCOCC1", 6.2),
    ("O=C(Nc1ccccc1Cl)N1CCOCC1", 3.1),
    ("O=C(Nc1ccc(Cl)cc1Cl)N1CCOCC1", 12.5),
    ("O=C(Nc1ccc(F)cc1F)N1CCOCC1", 4.2),
]

(I) O=C(Nc1ccc(F)cc1)N1CCOCC1
(II) CC(C)c1ccc(NC(=O)N2CCOCC2)cc1
(III) O=C(Nc1cc(Cl)cc(Cl)c1)N1CCOCC1
**Q:** # rank_down: sort by MIC, max first # the answer lists labels in the order requested
**A:** III, II, I
(III: 12.5 µg/mL, II: 7.2 µg/mL, I: 1.6 µg/mL)
